src = ChEMBL document CHEMBL3804808

target_or_system: Hexokinase-2 (Homo sapiens)
Sequence (P52789 whole entry, the tested form may be a part): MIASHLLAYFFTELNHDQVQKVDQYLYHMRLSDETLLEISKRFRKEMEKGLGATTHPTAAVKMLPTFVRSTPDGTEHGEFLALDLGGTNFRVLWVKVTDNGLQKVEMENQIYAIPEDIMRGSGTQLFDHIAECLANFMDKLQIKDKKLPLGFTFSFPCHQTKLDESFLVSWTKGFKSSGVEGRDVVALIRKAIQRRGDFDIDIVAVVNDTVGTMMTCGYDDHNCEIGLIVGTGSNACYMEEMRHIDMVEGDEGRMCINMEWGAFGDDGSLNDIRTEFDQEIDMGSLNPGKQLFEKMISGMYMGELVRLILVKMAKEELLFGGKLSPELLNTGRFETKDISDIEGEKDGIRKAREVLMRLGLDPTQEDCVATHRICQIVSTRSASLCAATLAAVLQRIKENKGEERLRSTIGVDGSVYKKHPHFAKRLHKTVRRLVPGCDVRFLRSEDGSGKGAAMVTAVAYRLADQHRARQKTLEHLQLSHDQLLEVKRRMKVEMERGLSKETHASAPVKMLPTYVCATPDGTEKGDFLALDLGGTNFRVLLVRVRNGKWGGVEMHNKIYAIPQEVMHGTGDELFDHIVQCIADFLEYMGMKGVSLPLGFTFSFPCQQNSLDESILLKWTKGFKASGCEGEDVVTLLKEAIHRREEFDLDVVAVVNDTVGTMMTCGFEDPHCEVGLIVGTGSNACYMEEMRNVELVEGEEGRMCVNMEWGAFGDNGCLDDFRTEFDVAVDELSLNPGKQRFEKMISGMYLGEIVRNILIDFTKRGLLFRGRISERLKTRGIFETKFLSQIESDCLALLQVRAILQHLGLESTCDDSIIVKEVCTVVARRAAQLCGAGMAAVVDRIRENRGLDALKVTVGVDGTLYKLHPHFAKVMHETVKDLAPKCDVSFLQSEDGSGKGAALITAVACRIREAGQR
test_summary: Inhibition of His-tagged human HK2 (17 to 916 residues) expressed in Escherichia coli BL21(DE3) using glucose as substrate after 45 mins by ADP-glo assay in presence of MgATP
quantity_kind: pIC50
Scale: pIC50 equals -log10([C]), with [C] in mol/L.

Examples from the recorded data:
Cc1ccc(S(=O)(=O)NC[C@H]2OC(O)[C@H](NC(=O)/C=C/c3ccc(Cl)c(Cl)c3)[C@@H](O)[C@@H]2O)cc1 (stereo partly specified): 5.70
O=C(N[C@H]1C(O)O[C@H](CNS(=O)(=O)c2ccccc2)[C@@H](O)[C@@H]1O)c1cccc(-c2ccccc2)c1 (stereo partly specified): 6.10
O=C(/C=C/c1ccc(Cl)c(Cl)c1)N[C@H]1C(O)O[C@H](CO)[C@@H](O)[C@@H]1O (stereo partly specified): 5.20

Quick note, pIC50 for O=C(N[C@H]1C(O)O[C@H](CNS(=O)(=O)c2cccc(Cl)c2Cl)[C@@H](O)[C@@H]1O)c1cccc(-c2ccccc2)c1 (stereo partly specified) landed at 7.60

O=C(N[C@H]1C(O)O[C@H](CO)[C@@H](O)[C@@H]1O)c1ccc(-c2ccccc2)cc1 (stereo partly specified) yielded pIC50 of 4.80

// field: pIC50; key: O=S(=O)(N[C@H]1C(O)O[C@H](CNS(=O)(=O)c2cccc(Cl)c2Cl)[C@@H](O)[C@@H]1O)c1cccc(-c2ccccc2)c1 (stereo partly specified) ; value = 7.60

Reported pIC50 ( O=C(N[C@H]1C(O)O[C@H](CNS(=O)(=O)c2cccc(Cl)c2)[C@@H](O)[C@@H]1O)c1cccc(-c2ccccc2)c1 (stereo partly specified) ) = 6.49

Record Cc1oc(S(=O)(=O)NC[C@H]2OC(O)[C@H](NC(=O)c3cccc(Br)c3)[C@@H](O)[C@@H]2O)cc1C(=O)O (stereo partly specified) . Reported pIC50: 8.00

The measured pIC50 associated with O=C(C=C1CCC(C(F)(F)F)CC1)N[C@H]1C(O)O[C@H](CO)[C@@H](O)[C@@H]1O (stereo partly specified) reads 4.80
